// data source = ChEMBL document CHEMBL1201862

Give GI50 for every item shown.
Test system: 786-0
Test: NCI tumour cell line growth inhibition, 48 h
The source made the active and inactive calls. Cut-off read from the data, not from the text of the source: active = GI50 up to about 1.1 µM and inactive = higher.

The recorded GI50 for CCC1(O)CC(OC2CC(N(C)C)C(OC3CC(O)C(OC4OC(C)C(=O)C=C4N)C(C)O3)C(C)O2)c2c(O)c3c(c(O)c2C1C(=O)OC)C(=O)c1cccc(O)c1C3=O (stereo not given) is 0.0021 µM (active)

Summary for this molecule, `C#CCN(Cc1ccc2nc(OC)c(OC)nc2c1)c1cc(OC)c(OC)c(OC)c1` : GI50 is 24 µM (inactive)

Record `N[C@H](C(=O)O)[C@@H]1CC(Br)=NO1` . Reported GI50: 13 µM (inactive)

Lab book: GI50 of `O=C1C=C(Sc2ccccc2)c2nccc3c2c1nc1ccccc13` noted as 16.9 µM (inactive)

The value of GI50 measured for the molecule `CCOc1ccc(/N=C/c2ccc3ccccc3n2)cc1` turned out to be > 100 µM (inactive)

----------
System: HCC 2998
Assay: NCI tumour cell line growth inhibition, 48 h
Calls of active or inactive are those of the source. Rule as the data show it: active = GI50 up to about 1.1 µM and inactive = higher.
Would you mind answering with one of these outcomes? YES (active), NO (inactive)

Would you mind telling me which call this test gave CSc1nc(NC2OC(COC(C)=O)C(OC(C)=O)C(OC(C)=O)C2OC(C)=O)c2c(OC(C)=O)c(C)c(=O)oc2n1 (stereo not drawn) ?
NO

Dear colleague, could you share the recorded outcome for `OC(O)(C(F)(F)F)C(F)(F)F` when you have a moment?
NO

Dear colleague, could you share the recorded outcome for `CN(C)Cc1[nH]c2ccccc2c1C(=O)c1ccccc1` when you have a moment?
NO

Look up the recorded call for `COc1cc(-c2cc(CCC(=O)Nc3ccccc3[N+](=O)[O-])n(-c3ccc([N+](=O)[O-])cc3[N+](=O)[O-])n2)ccc1O` in this test.
NO

Any idea what this test logged for N#CCCCCC12C3C(=O)N(c4ccccc4)C(=O)C3ON1O[C@@H]1C(=O)N(c3ccccc3)C(=O)[C@@H]12 (stereo partly drawn) ?
NO

Fill in: this test's call for `O/N=C/C1c2ccccc2-c2ccccc21` is ___
NO

How did this test come out for `COC(=O)[C@@H]1C[C@@]2(C3C=CN(C(=O)C(F)(F)F)C=C3)c3ccccc3N(C(=O)C(F)(F)F)[C@H]2N1C(=O)OC` ?
NO

Please state the recorded outcome for this molecule: `Cc1ccc(-n2c(C)nc3c2C(=O)c2ccccc2C3=O)cc1`
NO

Recorded test call requested for CC(CNCCCNCCNCCCNCO)[N+](=O)[O-] (stereo not drawn)
NO

Called result for CCCCC(=C=C1CCCCC1O)C1CCCN1C(=O)OC(C)(C)C (stereo not drawn)
NO

Per the assay record, what outcome was assigned to `Cc1cc(/N=C/c2ccc(N(C)C)cc2)n(-c2ccccc2)n1` ?
NO

Just curious, what result did C=CCC12CC(=O)C=C1CCC1(C2)OCCO1 (stereo not drawn) get here?
NO

Returns: the outcome recorded for `Cc1cc(NC(=O)NC(=O)c2ccccc2[N+](=O)[O-])ccc1Oc1ncc(Cl)cn1` in this assay.
YES

Give the logged outcome of this assay for the following molecule: CC1(C)CC23C(=O)N(c4ccccc4)C(Nc4ccccc4)=NC2=CC(C#N)=C(C#N)C3O1 (stereo not drawn)
NO

Per the assay record, what outcome was assigned to `CCCc1cc(=O)oc2c3c(c4c(c12)OC(C)(C)C=C4)O[C@@H](C)[C@H](C)C3=O` ?
NO

Could you please tell me the result logged for CC(C)CC(N)C(=O)NC(CNC(CCC(N)=O)C(=O)NC(CC(C)C)C(=O)NC(CC(C)C)C(=O)O)Cc1ccc2ccccc2c1 (stereo not drawn) in this assay?
NO

What did the test return for `CN(C)c1ccc(/C=C(\NC(=O)c2ccccc2)C(=O)Nc2cccc(C(=O)NCCCO)c2)cc1` ?
NO

Hi, do you know how `Oc1c(Br)ccc2cccnc12` came out in this test?
NO

GET /call?item= CC(Cc1ccc(O)cn1)(NC(=O)c1ccccc1)C(=O)O (stereo not drawn) returns the recorded outcome of this test.
NO

Identify the outcome logged in this assay for the molecule shown: COc1nc2c(c(=O)n1C)NC(C(O)C(O)CO)C=N2 (stereo not drawn)
NO

What classification did `COC(=O)/C=C(\C)C(=O)N(C)c1ccccc1I` end up with in this test?
NO

Could you please tell me the result logged for `CCCCCCCCCCCC(=O)c1c(O)cc(C)oc1=O` in this assay?
NO

What call does the record list for C/C=C/C(C#N)(/C=C/c1ccccc1)OP1(=O)OC(c2ccccc2)C(C)N1C (stereo not drawn) ?
NO

Test call, this molecule: `CCOc1ccc(/N=C/c2ccc3ccccc3n2)cc1`
NO

Query: recorded result category for COc1cc(C(C)O)c[n+](CCc2c[nH]c3ccccc23)c1 (stereo not drawn) in this test
NO

What outcome does the record of this test show for `COc1cccc(C=C(C#N)C#N)c1OC` ?
NO

// param item: `CCOC(=O)/C(C(C)=O)=C(\OC(C)=O)c1ccncc1C(=O)O` ; yields the recorded call
NO

Record request — test call for `COC(=O)[C@@H]1CN(C(C)=O)C(=O)N1`
NO

For C[N+]1([O-])C2CCC1CC(OC(=O)C(CO)c1ccccc1)C2 (stereo not drawn) , which call appears in the assay record?
NO

For CC(=O)OCC1OC(n2c(S)nc(-c3ccccc3)c(C#N)c2=O)C(OC(C)=O)C(OC(C)=O)C1OC(C)=O (stereo not drawn) , which call appears in the assay record?
NO

Could you please tell me the result logged for `COC(=O)C1=C(O)c2ccc(Cl)cc2S(=O)(=O)N1C` in this assay?
NO

Entry `CC1=NN(C(=O)c2ccccc2O)C(=O)/C1=C/c1c(O)ccc2ccccc12` : call = ?
NO

I would be grateful if you could indicate the recorded call for `CC(=O)Oc1ccc2c(c1)oc1c3ccc(OC(C)=O)cc3n(C)c(=O)c21` .
NO

Would you mind telling me which call this test gave O=C1CC2C=CC1C2CO (stereo not drawn) ?
NO

State the result this test recorded for CC[C@]1(Cc2ccc(OC)c(OC)c2)C=[N+]([O-])O[C@H](OC2CCCC2(c2ccccc2)c2ccccc2)[C@@H]1OC(C)=O (stereo partly drawn) .
NO

Hello, I am checking results. What call was entered for `Cc1nc2ccccc2c(=O)n1/N=C(\N=N\c1ccccc1)c1ccccc1Cl` ?
NO

Which outcome was assigned to `CC1=CC(=O)/C(=C/N2CCNC2=S)C(=O)O1` in this test?
NO

// return assay outcome for CC(C)SC(NC(=O)C1C(C)(C)CCC1(C)C)C(=O)O (stereo not drawn)
NO

For CC(C)(C)OC(=O)C1CC[C@@H](CC(=O)Oc2ccc([N+](=O)[O-])cc2)N1 (stereo partly drawn) , which call appears in the assay record?
NO

Recorded test call requested for `O=C(NO)c1ccc([N+](=O)[O-])cc1`
NO

Tell me the assay call for Nc1ncnc2c(C3OC(CO)C(O)C3O)c[nH]c12 (stereo not drawn) please.
YES

Dear colleague, could you share the recorded outcome for `COc1cccc(/C=N/NC(N)=O)c1O` when you have a moment?
NO

# lookup: test call for `CCOC(=O)c1cn(-c2ccccc2)c(=S)n2c1nc1ccccc12`
NO

----------
Tested on: ACHN
Assay: NCI tumour cell line growth inhibition, 48 h
The source made the active and inactive calls. Cut-off read from the data, not from the text of the source: active = GI50 up to about 1.1 µM and inactive = higher. Where a SMILES comes first, the peptide text is derived from it. Non-standard residues stand in square brackets, D forms with d. Residues, ends and D or L forms follow the SMILES beside them. The star is where a group is joined. ξ: configuration not given here. Pentanoyl(2-O,4-OH,5-Cl) = O=C(O)C(O)CC(O)CCl; Ile(3ξ) = CCC(C)[C@H](N)C(=O)O; NMeV = CN[C@H](C(=O)O)C(C)C; NMeA = CN[C@@H](C)C(=O)O; Cbz = O=C(OCc1ccccc1)*; βAla = NCCC(=O)O
Provide the reported GI50 of each item.

Record `CCCc1cc(=O)oc2c3c(c4c(c12)OC(C)(C)C=C4)O[C@@H](C)[C@H](C)C3=O` has ACHN GI50 equal to 12.4 µM (inactive)

GI50 of `Cc1cc(/N=C/c2ccc(N(C)C)cc2)n(-c2ccccc2)n1` , assay on ACHN, is > 100 µM (inactive)

Entry `C(=C\c1ccco1)/c1cccc(/C=C/c2ccco2)n1` under ACHN had GI50 of > 50 µM (inactive)

Bench note, ACHN: CC(Cc1ccc(O)cn1)(NC(=O)c1ccccc1)C(=O)O (centres undefined) , GI50 reads > 100 µM (inactive)

Assay ACHN, sample `CC(=O)OCCOCNC(=S)N/N=C(\C)c1cccs1` , GI50 read: > 100 µM (inactive)

Entry `O=c1c2cccnc2[nH]c2ccc3scnc3c12` : GI50 on ACHN = 1.87 µM (inactive)

Record `CCn1c(SCC(=O)NNC(=S)Nc2ccc(F)cc2)nc2ccccc2c1=O` has ACHN GI50 equal to > 100 µM (inactive)

Per the reported ACHN data, `CC(C)N1[C@@H]2CCCC[C@H]2N(C(C)C)P1(=O)C(=O)/C=C/c1ccccc1` has GI50 of 2.69 µM (inactive)

GI50 of `COC(=O)[C@@H]1CN(C(C)=O)C(=O)N1` , assay on ACHN, is > 100 µM (inactive)

Record CCC(C)[C@@H]1NC(=O)[C@@H]2CCCN2C(=O)C(CC(O)CCl)OC(=O)CCNC(=O)[C@H](C)N(C)C(=O)[C@H](C(C)C)N(C)C1=O (some centres undefined) (cyclo([Ile(3ξ)][NMeV][NMeA][βAla][Pentanoyl(2-O,4-OH,5-Cl)]P)) has ACHN GI50 equal to > 100 µM (inactive)

Lab note: molecule `CC1=CC(=O)/C(=C/N2CCNC2=S)C(=O)O1` tested on ACHN; recorded GI50 was > 100 µM (inactive)

Record `O=C1C=C(Nc2ccc(S(=O)(=O)Nc3nccs3)cc2)c2ccccc2C1=O` ; system ACHN; GI50 = 21 µM (inactive)

Log: ACHN, molecule `COC(=O)c1ccc([N+](=O)[O-])c(O)c1` , GI50 = > 100 µM (inactive)

The molecule CCN(CC(COc1ccc2c(c1)[n+]([O-])nc(N)[n+]2[O-])OC(C)=O)C(C)=O (centres undefined) , when measured on ACHN, yielded GI50 of > 100 µM (inactive)

`C[N+](C)(C)CC(=O)N/N=C/c1oc(-c2c(O)ccc3ccccc23)c(-c2c(O)ccc3ccccc23)c1[N+](=O)[O-]` tested on ACHN gave GI50: 3.31 µM (inactive)

Entry `Cc1nc2ccccc2c(=O)n1/N=C(\N=N\c1ccccc1)c1ccccc1Cl` : GI50 on ACHN = 33.3 µM (inactive)

Summary: COC(=O)c1c2c(cc3c1CC1(Cc4cc5c(c(C(C)=O)c4C1)CCC5)C3)CCC2 (centres undefined) , ACHN, GI50 = 40 µM (inactive)

GI50 value, target or system ACHN, for `Cn1nc(-c2ccccc2NC(=O)C(F)(F)F)c(=O)n(C)c1=S` : 24.5 µM (inactive)

Measured GI50 for this entry `Cc1ccc(-n2c(C)nc3c2C(=O)c2ccccc2C3=O)cc1` on ACHN: 27.9 µM (inactive)

Measured on ACHN, `Cc1cc2oc(=O)c(Cl)c(Cl)c2c(C)c1Cl` has a documented GI50 of 11.2 µM (inactive)

The reported ACHN GI50 of `C/C=C/COc1cc(NC(=S)OC(C)C)ccc1Cl.C/C=C\COc1cc(NC(=S)OC(C)C)ccc1Cl` is 17.7 µM (inactive)

Response field GI50 (ACHN) for item `N#CC(=S)Nc1ccc(Cl)c(Cl)c1` : 33.3 µM (inactive)

GI50 for ACHN with input CN1C(=O)C23CCCCC2CC1(c1ccccc1)S3 (centres undefined) equals > 100 µM (inactive)

# lookup: C[C@@H]1OC(=O)C[C@H]2CC(=O)N(CCC3CN(S(=O)(=O)C(F)(F)F)c4ccc(Cc5ccc6c(c5)C(CCN5C[C@H]7[C@@H](CC(=O)O[C@H]7C)CC5=O)CN6S(=O)(=O)C(F)(F)F)cc43)C[C@@H]21 (some centres undefined) on ACHN, GI50 = > 100 µM (inactive)

Reported ACHN GI50 for item O=C1C(/C=N/CCc2c[nH]c3ccccc23)C(C(F)(F)F)=NN1c1nc2ccccc2s1 (centres undefined) was 27.4 µM (inactive)

Kindly note: ACHN, `N#Cc1c(-c2ccccc2)cc(-c2cccs2)c(C#N)c1N` , GI50 value reported: > 100 µM (inactive)

Per the reported ACHN data, COc1ccc2ccccc2c1C1OC(=O)c2ccccc21 (centres undefined) has GI50 of > 100 µM (inactive)

GI50 on ACHN for O=C1/C(=C\c2cccc(Oc3ccccc3)c2)SC(c2ccccc2)N1c1ccccc1Cl (centres undefined) is 39.6 µM (inactive)

# lookup: CC(C)C1=CC23CCC4C(C)(C(=O)O)CCCC4(C)C2CC1C1C(=O)N(c2ccccc2N2C(=O)C4C5CC6C7(C)CCCC(C)(C(=O)O)C7CCC6(C=C5C(C)C)C4C2=O)C(=O)C13 (centres undefined) on ACHN, GI50 = 10.2 µM (inactive)

Here `NC1=NC(=O)[C@H](CSCc2ccccc2)N1C(=O)OCc1ccccc1` was tested on ACHN, and its GI50 came to > 100 µM (inactive)

GI50 for ACHN with input `Cc1ccccc1NC(=O)C(=O)CC(=O)c1c(C)[n+]([O-])c2ccccc2[n+]1[O-]` equals > 100 µM (inactive)

Tested system ACHN; GI50 recorded for CC(=O)n1c2c(c(=O)n1-c1ccccc1)[S+]([O-])CCC2 (centres undefined) was 46.8 µM (inactive)

For the molecule OC1CCCCCCCCCCC1SCCCCl (centres undefined) , the measured GI50 on ACHN was > 100 µM (inactive)

Response field GI50 (ACHN) for item `COc1cccc(/C=N/NC(N)=O)c1O` : > 100 µM (inactive)

Param item: `COC(=O)[C@@H]1C[C@@]2(C3C=CN(C(=O)C(F)(F)F)C=C3)c3ccccc3N(C(=O)C(F)(F)F)[C@H]2N1C(=O)OC` ; param system: ACHN; output GI50: > 100 µM (inactive)

Item CCOC(=O)CCC(NC(=O)CNC(=O)CNC(=O)C(CCC(=O)OCC)NC(=O)C(CCC(=O)OCC)NC(=O)C(CCC(=O)OCC)NC(=O)OCc1ccccc1)C(=O)NC(CCC(=O)OCC)C(=O)NC(CCC(=O)OCC)C(=O)OCC (centres undefined) (Cbz-E(OEt)E(OEt)E(OEt)GGE(OEt)E(OEt)E(OEt)-OEt; configuration not given here) ; assay system ACHN; GI50 reported as > 75 µM (inactive)

Note to self: GI50 of O=c1ccn(C2OC(CO)C(O)C2F)c(=O)n1Cc1ccccc1 (centres undefined) with ACHN was > 100 µM (inactive)

Simply: N#Cc1ccc(C2SCc3nc4ccccc4n32)cc1 (centres undefined) , ACHN, GI50 = 63.8 µM (inactive)

Field GI50 (ACHN), entry CCC1OC2C(CC=C(C)C)=C3OC(C)(O)C(C)(CC)C(OC(C)=O)C3=C3OC(=O)C=C1C32 (centres undefined) : 39.6 µM (inactive)
